Where do the numbers come from? From ChEMBL document CHEMBL1127837.

- Protocol Summary: The compound was tested for antitumor activity against P388 murine leukemia by measuring maximum tolerated dose
- Assay type: ADME, organism-based
- Assay Setup: mouse, in vivo; read-out: LD10
Exercise: state measured MTD for each of the compounds provided.
Quote the value and follow it with the unit of measurement.

Fill in: MTD of NCCNc1ccc(NCCN)c2c1C(=O)c1cc[n+]([O-])cc1C2=O is ___
60 mg/kg/day

// MTD lookup, key: CN(C)CCNc1ccc(NCCN(C)C)c2c1C(=O)c1cc[n+]([O-])cc1C2=O
40 mg/kg/day

Consider the compound O=C1c2ccncc2C(=O)c2c(NCCN3CCOCC3)ccc(NCCN3CCOCC3)c21 and give its measured MTD.
60 mg/kg/day

Given the entry CNCCNc1ccc(NCCNC)c2c1C(=O)c1ccncc1C2=O.Cl , report its measured MTD.
8 mg/kg/day

Suppose we examine the compound O=C1c2c(O)ccc(O)c2C(=O)c2c(NCCNCCO)ccc(NCCNCCO)c21 [MITOXANTRONE] ; what MTD value has been reported?
3 mg/kg/day

Endpoint output: MTD of CCN(CC)CCNc1ccc(NCCN(CC)CC)c2c1C(=O)c1ccncc1C2=O . Value?
60 mg/kg/day

If you can, please state the reported MTD value of O=C1c2ccccc2C(=O)c2c(NCCNCCO)ccc(NCCNCCO)c21 [AMETANTRONE] .
58 mg/kg/day
